Each entry below lists one item and its recorded NADPH fluorescence slope value.
- assayed.target: Voltage-gated potassium channel subunit beta-2 (Rattus norvegicus) (UniProt P62483)
- Sequence (P62483 whole entry, looked up): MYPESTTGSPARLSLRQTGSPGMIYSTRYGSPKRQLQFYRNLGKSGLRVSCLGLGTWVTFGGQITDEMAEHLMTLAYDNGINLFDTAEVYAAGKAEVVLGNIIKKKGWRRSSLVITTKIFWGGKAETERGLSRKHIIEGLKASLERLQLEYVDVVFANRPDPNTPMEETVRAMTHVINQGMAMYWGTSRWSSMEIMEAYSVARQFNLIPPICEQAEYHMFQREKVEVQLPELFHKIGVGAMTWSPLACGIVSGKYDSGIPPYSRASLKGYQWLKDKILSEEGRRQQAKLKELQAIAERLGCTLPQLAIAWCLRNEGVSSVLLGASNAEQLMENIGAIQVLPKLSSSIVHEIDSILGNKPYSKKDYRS
- assay.remarks: KvBeta positive modulators, primary screen, biochemical, NADPH fluorescence (AID 623);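 also: fluorescence intensity change per second fitted from 20 to 320 s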
- settings: Recombinant KvBeta, NADPH fluorescence decrease slope, 10 min; at 10 µM; stronger effect = lower value
Format: numeric value only, no unit, no commentary.

Below are worked cases with known answers.
>  <molecule>
Cc1cccn2c(=O)c3cc(C(N)=S)c(=N)n(CCCOC(C)C)c3nc12

>  <NADPH fluorescence slope>
-3.3e-05

$$$$
>  <molecule>
C=CCn1c(SCC(=O)Nc2ccccc2OC)nnc1-c1ccco1

>  <NADPH fluorescence slope>
-5.8e-05

$$$$
>  <molecule>
O=C1C(=O)N(Cc2cccnc2)C(c2ccccn2)/C1=C(/O)c1ccc(Br)cc1 (stereo unspecified)

>  <NADPH fluorescence slope>
-4.3e-05

$$$$

What does the data say about its NADPH fluorescence slope? Entry: "Cn1cccc1Cc1nnc(SCC(=O)Nc2ccc(F)cc2)n1-c1ccc(F)cc1" -1.8e-05

What measured NADPH fluorescence slope goes with "COc1cccc2cc(C(=O)N3CCN(c4ccc(C)cc4C)CC3)c(=O)oc12" ? -1.5e-05

GET /values?readout=NADPH fluorescence slope&item= "COCCNC(=O)c1cc(-c2cccs2)on1" 6.5e-06
